TGI: recorded values
# Test system: OVCAR-8 ovarian
# test: NCI tumour cell line growth inhibition, 48 h

Nc1ncnc2c1ncn2CCCC(c1ccccc1)P(=O)(O)O (stereo not given) ... > 100 µM
CCCN(CCC)CCc1cc(C(C)=O)n(S(=O)(=O)c2ccc(C)cc2)c1 ... > 100 µM
COC(=O)[C@H]1[C@@H](O)[C@@]2(O)c3c(OC)cc(OC)cc3O[C@@]2(c2ccc3c(c2)OCO3)[C@@H]1c1ccccc1 ... > 50 µM
COC(=O)CCCC1(CCCC(=O)OC)CCCCCCCCC(CCCC(=O)OC)(CCCC(=O)OC)C(=O)C1=O ... > 100 µM

Let's switch to this molecule now.
### Prompt Give the measured TGI of C/C(=N/NC(=S)N(C)C)c1ccccc1O .
### Response > 74.4 µM

###

The reader will find reported TGI values listed item by item below.
# Test system: UACC-257 melanoma
# test: NCI tumour cell line growth inhibition, 48 h

Study these solved cases before continuing.
CC(C)NCC(O)c1ccc(O)c2ncccc12 (stereo unspecified) ... > 100 µM
O=C1OCC(c2ccc(O)cc2)=C1c1cc(O)c(O)c(O)c1 ... > 100 µM
Cc1c(NC(=O)CCl)c(=O)oc2c(C)c3occc(=O)c3cc12 ... 34 µM
C[N+](C)=c1ccc2nc3c(ccc4ccccc43)oc-2c1 ... 16.4 µM

### Prompt So what does the record say about TGI for COc1cc2c3c(n(CCCCNC(=O)OC(C)(C)C)c(=O)c2cc1OC)-c1cc2c(cc1C3=O)OCO2 ?
### Response > 100 µM

### Prompt I have this compound here, COc1cccc(-n2ncc3c(N/N=C/c4ccc(C)cc4)ncnc32)c1 , and I need its recorded TGI.
### Response > 25 µM

### Prompt If you can, please state the reported TGI value of NC(=S)Nc1ccc2c(c1)oc1ccccc12 .
### Response > 100 µM

### Prompt // returns reported TGI for input CCCCCCCCCCCCCCCCNCC(O)CN (stereo unspecified)
### Response 23.7 µM

### Prompt Which TGI value is on record for N/C(=N\NC(=O)c1nc2ccccc2s1)c1ccccn1 ?
### Response > 79.8 µM

### Prompt Give the measured TGI of COc1cccc(OC(=O)c2ccc(C(F)(F)F)nc2Nc2c(C)cccc2Cl)c1 .
### Response > 100 µM

### Prompt Which TGI is reported for this compound? CCCCC(=C=C(C)CO)C1CCCN1C(=O)OC(C)(C)C (stereo unspecified)
### Response 32.7 µM

###

The entries below come with measured TGI values attached.
# Test system: HOP-18 NSCLC
# test: NCI tumour cell line growth inhibition, 48 h

Example cases with answers are listed next.
CCCCCCCCCCCCCCCCNCC(O)CN (centres undefined) ... 14 µM
COc1cc2c(c(O)c1C)C(=O)CC(c1ccccc1)O2 (centres undefined) ... > 100 µM
COc1ccc(C2S/C(=C\c3cccc(OC)c3)C(=O)N2NC(=O)Cc2ccccc2)cc1 (centres undefined) ... > 100 µM

// switching to the query compound
### Prompt Given the entry CCCN(CCC)CCc1cc(C(C)=O)n(S(=O)(=O)c2ccc(C)cc2)c1 , report its measured TGI.
### Response > 100 µM

###

# System: MDA-MB-231 breast
# test: NCI tumour cell line growth inhibition, 48 h; in the data active = GI50 below about 0.43 µM; inactive = the rest
*1 amine or outer side, *2 acyl side, *3 side chain or, on linkers, in order; H or OH if unused. Where a SMILES comes first, the peptide text is derived from it. Bridges are numbered along the chain shown (N, C = ends). Roman numbers before positions name the chains, in order. [ ]: non-standard residue; d: D form. Actinocin(9to1) = Cc1c2oc3c(C)ccc(C(=O)[*:1])c3nc-2c(C(=O)[*:2])c(N)c1=O; NMeV = CN[CH](C(=O)O)C(C)C; Sar = CNCC(=O)O
Mark one answer only. Choices: active, inactive

Example cases with answers are listed next.
CCCCCCCCCCCC[N+](C)(C)Cc1ccccc1 ... inactive
COc1cccc(OC(=O)c2ccc(C(F)(F)F)nc2Nc2c(C)cccc2Cl)c1 ... inactive
Cc1ccc2[nH]c3c(c2c1)N=c1ccccc1=NO3 ... inactive
Cc1c2oc3c(C)ccc(C(=O)OC(C)C4NC(=O)C(C(C)C)N(C)C(=O)CN(C)C(=O)C5CCCN5C(=O)C(C(C)C)NC4=O)c3nc-2c(C(=O)OC(C)C2NC(=O)C(C(C)C)N(C)C(=O)CN(C)C(=O)C3CCCN3C(=O)C(C(C)C)NC2=O)c(N)c1=O (stereo unspecified) (I: cyclo([Sar][NMeV]TVP) / II: cyclo([Sar][NMeV]TVP); linker I:3-II:3 via Actinocin(9to1); configuration not given here) ... active
C=C(C)[C@@H]1CC[C@]2(COCCCNCCCN)CC[C@]3(C)[C@H](CC[C@@H]4[C@@]5(C)CC[C@H](OCCCN)C(C)(C)[C@@H]5CC[C@]43C)[C@@H]12 ... inactive

### Prompt So what was the verdict on COc1ccc(N2C(=O)/C(=C/C(Cl)=C/c3ccc([N+](=O)[O-])cc3)SC2=S)cc1 in this test?
### Response inactive
